- TARGET_ENTITY: Focal adhesion kinase 1 (Homo sapiens) (UniProt Q05397)
- Sequence (Q05397 whole entry, looked up): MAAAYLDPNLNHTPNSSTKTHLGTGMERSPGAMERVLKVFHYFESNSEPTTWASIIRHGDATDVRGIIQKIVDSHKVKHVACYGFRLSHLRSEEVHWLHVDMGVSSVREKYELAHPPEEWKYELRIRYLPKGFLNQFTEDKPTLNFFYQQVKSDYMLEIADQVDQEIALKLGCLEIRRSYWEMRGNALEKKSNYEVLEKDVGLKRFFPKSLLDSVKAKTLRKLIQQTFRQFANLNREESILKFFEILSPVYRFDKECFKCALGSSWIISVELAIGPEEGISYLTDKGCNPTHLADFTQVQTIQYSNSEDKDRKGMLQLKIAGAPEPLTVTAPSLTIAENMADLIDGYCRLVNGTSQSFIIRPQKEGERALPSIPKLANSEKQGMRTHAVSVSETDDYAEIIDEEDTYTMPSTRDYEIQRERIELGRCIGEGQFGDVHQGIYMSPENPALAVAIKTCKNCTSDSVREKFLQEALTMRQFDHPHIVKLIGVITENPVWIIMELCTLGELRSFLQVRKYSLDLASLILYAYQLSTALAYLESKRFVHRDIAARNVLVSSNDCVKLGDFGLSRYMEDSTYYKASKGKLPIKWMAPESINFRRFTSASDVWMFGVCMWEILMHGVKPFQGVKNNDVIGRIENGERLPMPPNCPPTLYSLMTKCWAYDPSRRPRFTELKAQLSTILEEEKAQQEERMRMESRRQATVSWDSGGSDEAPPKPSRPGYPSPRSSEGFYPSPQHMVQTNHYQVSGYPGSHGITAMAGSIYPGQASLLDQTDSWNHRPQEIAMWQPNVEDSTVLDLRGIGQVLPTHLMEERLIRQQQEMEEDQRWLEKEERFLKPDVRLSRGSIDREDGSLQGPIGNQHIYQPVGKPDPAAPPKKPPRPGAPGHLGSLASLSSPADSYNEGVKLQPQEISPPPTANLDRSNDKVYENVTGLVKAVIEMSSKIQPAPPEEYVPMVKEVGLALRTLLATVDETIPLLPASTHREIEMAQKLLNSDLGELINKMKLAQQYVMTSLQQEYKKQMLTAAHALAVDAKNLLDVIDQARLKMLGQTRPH
- PROTOCOL: PTK2 protein binding on printed compound slides – biochemical, small-molecule microarray, 635/667 nm fluorescence, BSA, DTT, primary screen (AID 1130);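 further: composite of spot emission at 667 nm and signal to noise over triplicate slides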
- CONDITION_NOTES: 635 nm fluorescence, higher = more signal
ENDPOINT: composite z-score

Solved cases below.
C=CC[C@@]1(C(=O)N2CCCCC2)N=C(c2ccc(OCCCO)cc2)O[C@@H]1c1ccccc1N=[N+]=[N-] :: 0.407
COCCOC(=O)N1C(=O)[C@@]2(c3ccccc31)[C@H](C(N)=O)[C@H]1C(=O)O[C@H](c3ccccc3)[C@H](c3ccccc3)N1[C@@H]2c1ccc(O)cc1 :: 0.386
CC(C)(C)OC(=O)CC[C@]1(C(N)=O)N=C(c2ccc(OCCCO)cc2)O[C@H]1c1ccccc1 :: 0.35
N#Cc1ccc(C(O)C2C=CC3C(=O)N(c4ccccc4)C(=O)C3N2Nc2ccccc2F)cc1 (stereo not drawn) :: 0.152
CS(=O)(=O)CCOC(=O)C1=CC(CCCO)=CC(C2CC2)N(Cc2cc3c(cc2Br)OCO3)C=C1C(=O)OCCS(C)(=O)=O (stereo not drawn) :: -0.0438
O=C1OCCC=C[C@H]2OC34C=CCN(Cn5nnc6ccccc65)C(=O)[C@H]3N(CCO)C(=O)[C@@H]4C12 (stereo partly drawn) :: -0.225

## Task In one line, give reported composite z-score of the entry CC(=O)Nc1cc(Br)ccc1C(=O)NCc1ccccc1 .
## Result 0.265

## Task Provide measured composite z-score value, entry: O=C(O)[C@H]1C[C@H]2C(=O)N3CCC[C@H]3C(=O)N2[C@H]1c1ccc(O)cc1
## Result -0.222
